These measurements were taken from patent US20230257372A1.

Target: human recombinant HDAC6 (Homo sapiens, UniProt Q9UBN7)
Construct: purchased Calbiochem Inc. 382180
Sequence (Q9UBN7 1-1215): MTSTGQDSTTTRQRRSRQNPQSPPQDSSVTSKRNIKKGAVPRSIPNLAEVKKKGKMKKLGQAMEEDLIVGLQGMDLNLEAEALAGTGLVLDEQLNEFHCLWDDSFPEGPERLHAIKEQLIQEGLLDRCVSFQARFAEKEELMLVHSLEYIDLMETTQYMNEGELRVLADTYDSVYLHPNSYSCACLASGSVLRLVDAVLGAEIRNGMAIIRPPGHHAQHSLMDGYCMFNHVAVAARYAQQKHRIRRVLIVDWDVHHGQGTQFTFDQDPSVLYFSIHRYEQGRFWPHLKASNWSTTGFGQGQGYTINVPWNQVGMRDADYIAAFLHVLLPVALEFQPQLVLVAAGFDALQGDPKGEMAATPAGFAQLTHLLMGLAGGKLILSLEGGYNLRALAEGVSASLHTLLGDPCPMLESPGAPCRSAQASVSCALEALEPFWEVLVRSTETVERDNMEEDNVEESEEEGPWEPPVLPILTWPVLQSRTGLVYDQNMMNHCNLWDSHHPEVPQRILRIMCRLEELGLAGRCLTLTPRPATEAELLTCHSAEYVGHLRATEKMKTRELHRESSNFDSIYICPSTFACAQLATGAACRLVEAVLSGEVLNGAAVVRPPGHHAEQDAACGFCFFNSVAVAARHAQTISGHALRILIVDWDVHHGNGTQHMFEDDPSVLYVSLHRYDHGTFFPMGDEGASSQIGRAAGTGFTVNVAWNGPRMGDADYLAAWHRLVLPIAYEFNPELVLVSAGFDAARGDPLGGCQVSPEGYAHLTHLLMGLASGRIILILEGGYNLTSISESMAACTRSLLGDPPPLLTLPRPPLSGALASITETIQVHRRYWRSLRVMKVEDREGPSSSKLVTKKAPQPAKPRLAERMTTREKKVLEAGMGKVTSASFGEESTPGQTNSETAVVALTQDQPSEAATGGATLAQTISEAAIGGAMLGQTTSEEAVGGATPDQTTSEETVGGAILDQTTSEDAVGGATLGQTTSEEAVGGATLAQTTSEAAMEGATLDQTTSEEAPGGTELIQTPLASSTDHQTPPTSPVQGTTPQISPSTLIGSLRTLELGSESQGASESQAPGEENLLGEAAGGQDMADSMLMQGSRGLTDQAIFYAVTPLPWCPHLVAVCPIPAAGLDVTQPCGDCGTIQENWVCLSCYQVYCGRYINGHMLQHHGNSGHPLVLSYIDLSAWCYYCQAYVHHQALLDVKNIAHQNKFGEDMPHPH
Test: HDAC6 enzyme activity inhibition (HDAC Fluorimetric Drug Discovery Kit)
Assay type: biochemical
Settings: HDAC1 IC50 / HDAC6 IC50
ENDPOINT_NAME: HDAC6 selectivity (fold)

## Task Give HDAC6 selectivity (fold) for this entry on human recombinant HDAC6 (Homo sapiens, UniProt Q9UBN7): FC(F)c1nnc(-c2ccc(Cn3cc(-c4cccc(N5C[C@@H]6C[C@H]5CN6C5CCC5)c4)nn3)cc2)o1 [Compound 4322]
## Result 531

## Task Give HDAC6 selectivity (fold) for this entry on human recombinant HDAC6 (Homo sapiens, UniProt Q9UBN7): FC(F)c1nnc(-c2ccc(Cn3cc(-c4cc(C(F)(F)F)cc(C(F)(F)F)c4)nn3)cc2)o1 [Compound 3695]
## Result 42

## Task Give HDAC6 selectivity (fold) for this entry on human recombinant HDAC6 (Homo sapiens, UniProt Q9UBN7): CCN1CCN(C(=O)c2cccc(-c3cn(Cc4ccc(-c5nnc(C(F)F)o5)cn4)nn3)c2)CC1 [Compound 4482]
## Result 943

## Task Give HDAC6 selectivity (fold) for this entry on human recombinant HDAC6 (Homo sapiens, UniProt Q9UBN7): CC(C)(C)OC(=O)Nc1cccc(-c2cn(Cc3ccc(-c4nnc(C(F)F)o4)cn3)nn2)c1 [Compound 3741]
## Result 1754

## Task Give HDAC6 selectivity (fold) for this entry on human recombinant HDAC6 (Homo sapiens, UniProt Q9UBN7): CN1CCC(Nc2cccc(-c3cn(Cc4ccc(-c5nnc(C(F)F)o5)cc4F)nn3)c2F)CC1 [Compound 4431]
## Result 2631

I. Fc1cc(-c2nnc(C(F)F)o2)ccc1Cn1cc(-c2ccc3c(c2)CCN(C2CN(C4COC4)C2)C3)nn1 [Compound 4395]
II. CCN1CC(c2cn(Cc3ccc(-c4nnc(C(F)F)o4)cn3)nn2)C1 [Compound 3951]
III. CN(C)c1cccc(-c2cn(Cc3ccc(-c4nnc(C(F)F)o4)cc3F)nn2)c1 [Compound 3774]
## Task Ascending sort, HDAC6 selectivity (fold). Sort and list the labels as requested.
## Result II, III, I
(II: 81 fold, III: 412 fold, I: 1024 fold)
